// provenance: paper PMC4072508

Target: T1, Mcl-1, Q07820
T1 chain: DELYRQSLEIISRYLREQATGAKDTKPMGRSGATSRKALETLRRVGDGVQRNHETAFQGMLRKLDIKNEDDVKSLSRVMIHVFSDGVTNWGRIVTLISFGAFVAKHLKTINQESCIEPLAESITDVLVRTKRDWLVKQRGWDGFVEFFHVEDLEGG
Experiment: peptide SPOT array, c-Myc-tagged receptor at 1 uM or 100 nM, anti-c-Myc-Cy3
For each record, write down the corresponding SPOT signal as a fraction of Bim BH3's signal on the same receptor and array.
Lab note: jot the number down without any unit.

Request: Fill in: SPOT signal as a fraction of Bim BH3's signal on the same receptor and array of PVGYLVESGRLSVMGCDVLKAVSDYF [MFI2] is ___
Result: 0.03

Request: Returns the measured SPOT signal as a fraction of Bim BH3's signal on the same receptor and array for the input binder. Input: NRKGEKNGKGLRHFSMKVCEKVQRKG [TFDP1]
Result: 0.3

Request: Give the measured SPOT signal as a fraction of Bim BH3's signal on the same receptor and array of KKLKNLEGNELQRHLDEFLLDLGHHE [FUT8] .
Result: 0.05

Request: Please look up its SPOT signal as a fraction of Bim BH3's signal on the same receptor and array: EEITSDAAYVIQDLATLFEELQREKK [XXXX]
Result: 0.02

Request: Can you look up the measured SPOT signal as a fraction of Bim BH3's signal on the same receptor and array of VTLLSEVEKMDSNFGDCVQYKEIVKN [SYNE1] for me?
Result: 0.05

Request: Entry ISSYMVLAPVDGYLGDRYNRKYLMCG [SPNS1] has what SPOT signal as a fraction of Bim BH3's signal on the same receptor and array?
Result: 0.69

Request: Which SPOT signal as a fraction of Bim BH3's signal on the same receptor and array value is on record for AKFLLYLGHSLSTWLDRMWHFAVSVF [SLC40A1] ?
Result: 0.07

Request: Record request: SPOT signal as a fraction of Bim BH3's signal on the same receptor and array value, item RCELQICGLAMADAGEYLCVCGQERT [OBSCN]
Result: 0.01

Request: Name the recorded SPOT signal as a fraction of Bim BH3's signal on the same receptor and array for LSPGRSVTAGIIIVLDEILKGHTQDT [FLAD1] .
Result: 0.01

Request: Entry under review: PAKKMTLSEIYRWILDNFPYYKNAGI [FOXJ2] . Reported SPOT signal as a fraction of Bim BH3's signal on the same receptor and array?
Result: 0.42

Request: I have this binder here, GPEHPAVAATLNNLAVLYGKRGRYRE [KLC3] , and I need its recorded SPOT signal as a fraction of Bim BH3's signal on the same receptor and array.
Result: 0.28

Request: Record request: SPOT signal as a fraction of Bim BH3's signal on the same receptor and array value, item AKYLSGIAHFLEKLAFSSTARFDSKD [PMPCA]
Result: 0.06

Request: Any idea what SPOT signal as a fraction of Bim BH3's signal on the same receptor and array was measured for GSPDSMFGISLAVLGDLNQDGFPDIA [ITGA7] ?
Result: 0.04

Request: Could you tell me which SPOT signal as a fraction of Bim BH3's signal on the same receptor and array is on file for SHFVACMTAILNQMLDQHYSFYIETF [DOCK2] ?
Result: 0.07

Request: If you can, please state the reported SPOT signal as a fraction of Bim BH3's signal on the same receptor and array value of KKCQDMIMTELTNALDDVVVFYNDKA [ITPR3] .
Result: 0.02

Request: I am curious: what SPOT signal as a fraction of Bim BH3's signal on the same receptor and array value has been reported for TPSRSALSSEDSLVGDTTGDTLEKFV [CREBBP] ?
Result: 0.01

Request: Any idea what SPOT signal as a fraction of Bim BH3's signal on the same receptor and array was measured for NKRHRPIGIGVQGLLDAFILMRYPFE [RRM1] ?
Result: 0.05

Request: So what's the measured SPOT signal as a fraction of Bim BH3's signal on the same receptor and array for this one? ELLYGIWSNCLGLISDSFHMFFDSTA [SLC30A7]
Result: 0.06

Request: What does the record list as SPOT signal as a fraction of Bim BH3's signal on the same receptor and array for MPYMEAVIHEIQRFLDVIPMSLARRV [CYP2A6] ?
Result: 0.08

Request: What value of SPOT signal as a fraction of Bim BH3's signal on the same receptor and array has been reported for the following binder? YFKLFRASGDMRTNGDNYLYEIQLSS [IGF2R]
Result: 0.43

Request: What measured SPOT signal as a fraction of Bim BH3's signal on the same receptor and array goes with RIEERKAIIGLYNYAHEMTHGASDRE [NCKAP1] ?
Result: 0.03
